Numbers sourced from ChEMBL document CHEMBL5356958.

assay.comment: Volume of distribution at steady state in ICR mouse at 1 mg/kg, iv
Type: ADME, organism-based
experimental.parameters: in vivo, read-out: Vdss

{"test.smiles": "CCc1nc(-c2ccc(OC)cc2)n(-c2cccc(C(=O)NCCCCn3nccn3)c2)n1", "Vd [L/kg]": 0.377}

----------
assay.target: UniProt:Q12809
Sequence (Q12809 whole entry): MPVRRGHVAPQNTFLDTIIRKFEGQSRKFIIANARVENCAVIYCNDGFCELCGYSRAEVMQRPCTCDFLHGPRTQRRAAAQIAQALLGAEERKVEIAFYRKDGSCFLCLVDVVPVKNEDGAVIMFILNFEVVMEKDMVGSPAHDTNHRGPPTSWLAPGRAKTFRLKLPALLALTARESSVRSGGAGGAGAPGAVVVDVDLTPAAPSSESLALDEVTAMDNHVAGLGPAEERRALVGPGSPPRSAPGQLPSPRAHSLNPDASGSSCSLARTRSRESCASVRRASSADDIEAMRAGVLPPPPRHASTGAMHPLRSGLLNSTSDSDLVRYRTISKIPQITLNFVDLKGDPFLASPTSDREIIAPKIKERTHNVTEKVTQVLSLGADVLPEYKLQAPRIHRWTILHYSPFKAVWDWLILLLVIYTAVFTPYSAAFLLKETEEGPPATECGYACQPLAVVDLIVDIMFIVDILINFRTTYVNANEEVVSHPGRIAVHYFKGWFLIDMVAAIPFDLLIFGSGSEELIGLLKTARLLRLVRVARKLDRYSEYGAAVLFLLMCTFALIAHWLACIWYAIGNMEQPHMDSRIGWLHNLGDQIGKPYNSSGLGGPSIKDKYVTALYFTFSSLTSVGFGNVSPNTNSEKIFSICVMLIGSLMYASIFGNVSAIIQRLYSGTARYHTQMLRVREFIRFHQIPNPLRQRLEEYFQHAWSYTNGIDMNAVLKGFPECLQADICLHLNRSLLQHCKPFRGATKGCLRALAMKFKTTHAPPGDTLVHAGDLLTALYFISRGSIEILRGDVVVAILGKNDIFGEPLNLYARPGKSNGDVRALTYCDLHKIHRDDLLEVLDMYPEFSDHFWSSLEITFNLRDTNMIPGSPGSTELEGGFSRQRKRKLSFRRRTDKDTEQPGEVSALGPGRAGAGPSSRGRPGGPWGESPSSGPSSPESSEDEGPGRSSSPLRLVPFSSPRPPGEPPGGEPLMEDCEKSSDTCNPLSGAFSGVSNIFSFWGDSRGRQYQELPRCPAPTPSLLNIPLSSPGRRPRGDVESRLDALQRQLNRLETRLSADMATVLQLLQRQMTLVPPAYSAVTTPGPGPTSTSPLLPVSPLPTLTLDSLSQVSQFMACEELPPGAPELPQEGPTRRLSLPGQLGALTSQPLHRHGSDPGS
assay.comment: Inhibition of human ERG at 3 uM relative to control
Assay type: toxicity
measure.name: inhibition at 3 µM (%)

{"molecule": "COc1cc(N)c(Cl)cc1C(=O)NC1CCN(CCCOc2ccc(F)cc2)CC1OC (stereo unspecified) [CISAPRIDE]", "measure.name": "inhibition at 3 µM", "meas.value": 107}
